- ASSAY TARGET: ALDH1A1 (Homo sapiens)
- Sequence (P00352 whole entry): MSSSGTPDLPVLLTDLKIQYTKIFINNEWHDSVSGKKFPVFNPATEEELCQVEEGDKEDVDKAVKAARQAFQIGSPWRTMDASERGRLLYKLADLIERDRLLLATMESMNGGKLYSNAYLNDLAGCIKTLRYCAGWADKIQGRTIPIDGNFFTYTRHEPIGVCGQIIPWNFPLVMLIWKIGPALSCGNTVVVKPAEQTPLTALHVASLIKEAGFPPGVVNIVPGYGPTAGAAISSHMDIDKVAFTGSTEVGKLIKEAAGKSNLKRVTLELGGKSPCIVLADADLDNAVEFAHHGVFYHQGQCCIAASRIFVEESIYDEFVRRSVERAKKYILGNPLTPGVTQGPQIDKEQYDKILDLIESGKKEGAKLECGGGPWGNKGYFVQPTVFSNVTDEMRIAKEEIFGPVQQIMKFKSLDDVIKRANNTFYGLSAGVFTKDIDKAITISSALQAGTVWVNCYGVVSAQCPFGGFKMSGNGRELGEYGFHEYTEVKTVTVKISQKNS
- PROTOCOL: Cell-based enzyme assay, retinoic acid production in ALDH1A1/H1299 cells
EC50 by entry:
Write down the numeric answer in µM and omit the unit.

Solved cases (3 shown):
QUERY SMILES: CCc1ccc(C(=O)N2CCN(c3ccc([N+](=O)[O-])c(N4CCCC4)c3)CC2)s1
ASSAY TARGET: ALDH1A1 (Homo sapiens)
MEASUREMENT: 0.195
--
QUERY SMILES: CCOc1ccsc1C(=O)N1CCN(c2ccc([N+](=O)[O-])c(N3CCCC3)c2)CC1
ASSAY TARGET: ALDH1A1 (Homo sapiens)
MEASUREMENT: 0.44
--
QUERY SMILES: Cn1cccc1C(=O)N1CCN(c2ccc(NC(=O)C(Cl)Cl)c(N3CCCCC3)c2)CC1
ASSAY TARGET: ALDH1A1 (Homo sapiens)
MEASUREMENT: 0.099

Item "O=C(c1ccc(F)s1)N1CCN(c2ccc([N+](=O)[O-])c(N3CCCC3)c2)CC1" with ALDH1A1 (Homo sapiens) - EC50?
0.26

----------
- ASSAY TARGET: UniProt O94788
- PROTOCOL: Inhibitor screening using purified enzymes: ALDH1A2 activity, retinoic acid production by HPLC (5 uM initial screen, then IC50)
- Type: biochemical
- Parameters: histidine-tag (C); made in house; host or cells: bacterial expression (pET28 vector, IPTG induction)
- STATED CONDITIONS: purified enzyme
// reported IC50 for each item listed
Supply the numeric figure in µM, leaving out any unit text.

COMPOUND: O=C(c1ccc(F)s1)N1CCN(c2ccc([N+](=O)[O-])c(N3CCCC3)c2)CC1 [Compound 334]
ENDPOINT LABEL: IC50
MEASUREMENT: 1.33
--
COMPOUND: O=C(c1ccc(Cl)cc1)N1CCN(c2ccc([N+](=O)[O-])c(N3CCCC3)c2)CC1 [Compound 342]
ENDPOINT LABEL: IC50
MEASUREMENT: 4.56
--
COMPOUND: CS(=O)(=O)c1ccc(-c2nn(-c3ccccc3)cc2C(=O)Nc2cccc(C(F)(F)F)c2)cc1 [Compound 208]
ENDPOINT LABEL: IC50
MEASUREMENT: 0.01
--
COMPOUND: CC(=O)c1ccc(-c2nn(-c3ccc(C#N)cc3)cc2C(=O)Nc2cccc(F)c2)cc1 [Compound 316]
ENDPOINT LABEL: IC50
MEASUREMENT: 0.6
--
COMPOUND: O=C(c1sccc1Cl)N1CCN(c2ccc([N+](=O)[O-])c(N3CCCC3)c2)CC1 [Compound 324]
ENDPOINT LABEL: IC50
MEASUREMENT: 0.142
--
COMPOUND: CS(=O)(=O)c1ccc(-c2nn(-c3ccc(F)cc3)cc2C(=O)Nc2cccc(F)c2)cc1 [Compound 241]
ENDPOINT LABEL: IC50
MEASUREMENT: 0.092

--- query ---
Give the measured IC50 of CS(=O)(=O)c1ccc(-c2nn(-c3cccc(Cl)c3)cc2C(=O)Nc2ccccc2O)cc1 [Compound 240] .
0.036

----------
- ASSAY TARGET: ALDH2 (Homo sapiens)
- Construct: histidine-tag (N); made in house; host or cells: bacterial expression (pETite vector, IPTG induction)
- Sequence (P05091 18-517): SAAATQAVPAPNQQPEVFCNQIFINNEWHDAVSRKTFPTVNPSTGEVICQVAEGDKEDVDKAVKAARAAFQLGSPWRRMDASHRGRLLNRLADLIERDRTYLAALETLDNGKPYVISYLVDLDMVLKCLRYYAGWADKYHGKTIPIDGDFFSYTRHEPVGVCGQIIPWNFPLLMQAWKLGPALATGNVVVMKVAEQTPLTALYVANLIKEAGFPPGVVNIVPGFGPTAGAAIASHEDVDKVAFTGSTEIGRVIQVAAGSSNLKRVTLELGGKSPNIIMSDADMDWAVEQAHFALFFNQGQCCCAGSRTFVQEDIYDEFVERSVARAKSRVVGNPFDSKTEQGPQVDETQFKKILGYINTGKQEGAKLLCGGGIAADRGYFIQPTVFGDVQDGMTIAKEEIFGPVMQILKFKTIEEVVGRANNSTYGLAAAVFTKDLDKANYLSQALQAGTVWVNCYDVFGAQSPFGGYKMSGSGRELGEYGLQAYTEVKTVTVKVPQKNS
- PROTOCOL: Purified ALDH2 assay with propanal, NADH fluorescence
- Assay type: biochemical
- STATED CONDITIONS: purified enzyme
Response field class: enum, chosen by comparing IC50 against interval 1: < 10 µM; interval 2: ≥ 10 µM and < 60 µM; interval 3: ≥ 60 µM

MOLECULE: O=C(c1ccccc1)N1CCN(c2ccc([N+](=O)[O-])c(N3CCCC3)c2)CC1
CAT: interval 2
//
MOLECULE: CS(=O)(=O)c1ccc(-c2nn(-c3cccc(C#N)c3)cc2C(=O)Nc2cccc(F)c2)cc1
CAT: interval 3
//
MOLECULE: CS(=O)(=O)c1ccc(-c2nn(-c3ccccc3)cc2C(=O)Nc2cccc(F)c2)cc1
CAT: interval 2
//
MOLECULE: CS(=O)(=O)c1ccc(-c2nn(-c3ccc(C#N)cc3)cc2C(=O)Nc2cccc(C(F)(F)F)c2)cc1
CAT: interval 2
//
MOLECULE: Cn1cccc1C(=O)N1CCN(c2ccc(NC(=O)C(Cl)Cl)c(N3CCCC3)c2)CC1
CAT: interval 3

Category of "Cn1cccc1C(=O)N1CCN(c2ccc([N+](=O)[O-])c(N3CCCC3)c2)CC1" , please.
interval 3

Using the reported IC50, which band applies to "CS(=O)(=O)c1ccc(-c2nn(-c3ccc(Cl)cc3)cc2C(=O)Nc2ccccc2O)cc1" ?
interval 3

Returns: class label. Input: N#Cc1ccc(-n2cc(C(=O)Nc3cccc(F)c3)c(-c3ccc(NC(=O)C(Cl)Cl)cc3)n2)cc1 [Compound 316a]
interval 1

// bin(item) where item = "CS(=O)(=O)c1ccc(-c2nn(-c3cccc(C#N)c3)cc2C(=O)Nc2ccc(F)c(F)c2)cc1"
interval 3

Which band does "O=C(c1ccc(F)s1)N1CCN(c2ccc([N+](=O)[O-])c(N3CCCC3)c2)CC1" fall in?
interval 3

Into which category would you place "O=C(Nc1cccc(C(F)(F)F)c1)c1cn(-c2ccccc2)nc1-c1ccc([N+](=O)[O-])cc1" ?
interval 2

Which category does the recorded IC50 put "COC(=O)c1ccc(-c2nn(-c3ccccc3)cc2C=O)cc1" in?
interval 1

Assign a bin to "O=C(Nc1ccccc1C(F)(F)F)c1cn(-c2ccccc2)nc1-c1ccc([N+](=O)[O-])cc1"
interval 2

// bin(item) where item = "CS(=O)(=O)c1ccc(-c2nn(-c3ccc(F)cc3)cc2C(=O)Nc2ccccc2O)cc1"
interval 1

----------
- ASSAY TARGET: ALDH1A2 (Homo sapiens)
- Sequence (O94788 whole entry): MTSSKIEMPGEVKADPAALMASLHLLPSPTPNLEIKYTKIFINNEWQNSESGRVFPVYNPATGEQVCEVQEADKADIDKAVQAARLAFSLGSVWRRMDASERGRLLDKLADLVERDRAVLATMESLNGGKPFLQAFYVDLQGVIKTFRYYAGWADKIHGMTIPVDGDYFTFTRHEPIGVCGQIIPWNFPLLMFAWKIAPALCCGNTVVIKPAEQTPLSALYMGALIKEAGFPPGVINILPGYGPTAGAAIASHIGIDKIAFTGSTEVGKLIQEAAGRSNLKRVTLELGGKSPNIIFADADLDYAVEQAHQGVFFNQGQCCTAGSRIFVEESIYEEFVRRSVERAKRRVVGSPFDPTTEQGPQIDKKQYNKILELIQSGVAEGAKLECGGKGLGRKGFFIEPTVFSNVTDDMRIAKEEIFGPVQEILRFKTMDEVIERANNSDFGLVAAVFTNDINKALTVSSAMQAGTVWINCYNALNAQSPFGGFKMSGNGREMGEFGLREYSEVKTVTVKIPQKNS
- PROTOCOL: Inhibitor screening using purified enzymes: ALDH1A2 activity, retinoic acid production by HPLC (5 uM initial screen, then IC50)
- Type: biochemical
- Set-up: histidine-tag (C); made in house; host or cells: bacterial expression (pET28 vector, IPTG induction)
- STATED CONDITIONS: purified enzyme
- Source text: ALDHs were cloned into bacterial expression vector for in vitro enzyme assays and into mammalian expression vectors for cell-based enzyme assays. […] For bacterial expression, an open reading frame of ALDH1A1 and ALDH2 were subcloned into the pETite vector (Lucigen) with a 5′ histidine-tag and that of ALDH1A2 into a pET28 vector (Novagen) with a 3′ histidine-tag. […]
ENDPOINT LABEL: IC50 (µM)
Quick note: give the figure in µM, leave out the unit.

Please review the following examples before continuing.
MOLECULE: CS(=O)(=O)c1ccc(-c2nn(-c3ccc(F)cc3)cc2C(=O)Nc2cccc(C(F)(F)F)c2)cc1 [Compound 256]
READOUT UNIT: µM
IC50: 0.112

MOLECULE: Cn1cccc1C(=O)N1CCN(c2ccc(N)c(N3CCCCCC3)c2)CC1 [Compound 379]
READOUT UNIT: µM
IC50: 2.58

MOLECULE: O=C(Nc1cccc(F)c1)c1cn(-c2ccccc2)nc1-c1ccc([N+](=O)[O-])cc1 [Compound 106]
READOUT UNIT: µM
IC50: 0.07

We now examine a further molecule.
// lookup IC50 for Cn1cccc1C(=O)N1CCN(c2ccc(-c3ccc([N+](=O)[O-])cc3)c(N3CCCCC3)c2)CC1 [Compound 373]
2.13

----------
- ASSAY TARGET: ALDH1A2 (Homo sapiens)
- PROTOCOL: Inhibitor screening using purified enzymes: ALDH1A2 activity, retinoic acid production by HPLC (5 uM initial screen, then IC50)
- Type: biochemical
- Parameters: histidine-tag (C); made in house; host or cells: bacterial expression (pET28 vector, IPTG induction)
- STATED CONDITIONS: purified enzyme
Where a name gives a salt, the structure may show the parent alone.
Mark True only for IC50 values smaller than 0.2 µM; exact matches and larger values are False.

Could you please tell me whether IC50 recorded for "CS(=O)(=O)c1ccc(-c2nn(-c3cccc(C#N)c3)cc2C(=O)Nc2cccc(C(F)(F)F)c2)cc1" is less than 0.2 µM?
False

Here's an entry: "CS(=O)(=O)c1ccc(-c2nn(-c3ccc(C#N)cc3)cc2C(=O)Nc2cccc(C(F)(F)F)c2)cc1" . Is its IC50 below 0.2 µM?
False

Take the compound "Cc1cc(C(=O)N2CCN(c3ccc([N+](=O)[O-])c(N4CCCC4)c3)CC2)sc1C" and say whether its IC50 is less than 0.2 µM.
False

Check if IC50 falls below 0.2 µM for "Nc1cccc(NC(=O)c2cn(-c3ccccc3)nc2-c2ccc([N+](=O)[O-])cc2)c1" .
False

# strict comparison: is reported IC50 < 0.2 µM? input = "CS(=O)(=O)c1ccc(-c2nn(-c3ccc(F)cc3)cc2C(=O)Nc2ccccc2O)cc1"
True

Could you please tell me whether IC50 recorded for Nc1ccsc1C(=O)N1CCN(c2ccc([N+](=O)[O-])c(N3CCCC3)c2)CC1 [Compound 331, hydrochloride] is less than 0.2 µM?
True

I wonder whether "CC(=O)Oc1ccccc1NC(=O)c1cn(-c2ccccc2)nc1-c1ccc(S(C)(=O)=O)cc1" has IC50 below 0.2 µM. Can you tell?
True

Given the entry "CC(=O)n1cccc1C(=O)N1CCN(c2ccc([N+](=O)[O-])c(N3CCCC3)c2)CC1" , would its reported IC50 be below 0.2 µM?
True

A record lists "CS(=O)(=O)c1ccc(-c2nn(-c3ccc(Cl)cc3)cc2C(=O)Nc2ccccc2O)cc1" . Is its IC50 below 0.2 µM?
False

Bench note: check whether "CS(=O)(=O)c1ccc(-c2nn(-c3ccccc3)cc2C(=O)Nc2cccnc2)cc1" shows IC50 below 0.2 µM
True

I wonder whether "Cn1cccc1C(=O)N1CCN(c2ccc(NC(=O)C(Cl)Cl)c(N3CCCCCC3)c2)CC1" has IC50 below 0.2 µM. Can you tell?
False

hey, is IC50 for "CS(=O)(=O)c1ccc(-c2nn(-c3ccc(OC(F)(F)F)cc3)cc2C(=O)Nc2cccc(F)c2)cc1" lower than 0.2 µM or not?
True

# strict comparison: is reported IC50 < 0.2 µM? input = "O=C(Nc1ccccc1O)c1cn(-c2ccccc2)nc1-c1ccc([N+](=O)[O-])cc1"
False

Is the reported IC50 for "CON(C)C(=O)c1ccc(-c2nn(-c3ccc(C#N)cc3)cc2C(=O)Nc2cccc(F)c2)cc1" strictly below 0.2 µM?
True

Find out if reported IC50 for "CS(=O)(=O)c1ccc(-c2nn(-c3ccccc3)cc2C(=O)Nc2cccc(F)c2)cc1" is less than 0.2 µM
True

For N#Cc1ccc(-n2cc(C(=O)Nc3cccc(F)c3)c(-c3ccc(NC(=O)C(Cl)Cl)cc3)n2)cc1 [Compound 310] , is the recorded IC50 below the cut-off of 0.2 µM?
True

Determine whether this compound shows IC50 lower than 0.2 µM (ties excluded): "CS(=O)(=O)c1ccc(-c2nn(-c3ccccc3)cc2C(=O)Nc2ccc(F)c(F)c2)cc1"
True

Does this compound meet the criterion IC50 < 0.2 µM? "O=C(c1ccccc1)N1CCN(c2ccc([N+](=O)[O-])c(N3CCCC3)c2)CC1"
False

Dear colleague, could you confirm whether IC50 of N#Cc1ccc(-n2cc(C(=O)Nc3cccc(F)c3)c(-c3ccc(NC(=O)C(Cl)Cl)cc3)n2)cc1 [Compound 316a] falls below 0.2 µM? Thanks.
True

Hi there! Is IC50 for "O=C(Nc1cccc(F)c1)c1cn(-c2ccccc2)nc1-c1ccc(CBr)cc1" below 0.2 µM, do you know?
False

Regarding "O=C(Nc1cccc(F)c1)c1cn(-c2ccccc2)nc1-c1ccc(CNC(=O)C(Cl)Cl)cc1" , kindly confirm whether its IC50 is beneath 0.2 µM.
True

Is 0.2 µM strictly greater than the compound's reported IC50? compound: "COc1ccsc1C(=O)N1CCN(c2ccc([N+](=O)[O-])c(N3CCCC3)c2)CC1"
True

Origin of the recorded values: patent US11548875B2
